Target: human prostanoid EP3 receptor (Homo sapiens)
Construct: expressed in transfected cells
Sequence (P43115 whole entry): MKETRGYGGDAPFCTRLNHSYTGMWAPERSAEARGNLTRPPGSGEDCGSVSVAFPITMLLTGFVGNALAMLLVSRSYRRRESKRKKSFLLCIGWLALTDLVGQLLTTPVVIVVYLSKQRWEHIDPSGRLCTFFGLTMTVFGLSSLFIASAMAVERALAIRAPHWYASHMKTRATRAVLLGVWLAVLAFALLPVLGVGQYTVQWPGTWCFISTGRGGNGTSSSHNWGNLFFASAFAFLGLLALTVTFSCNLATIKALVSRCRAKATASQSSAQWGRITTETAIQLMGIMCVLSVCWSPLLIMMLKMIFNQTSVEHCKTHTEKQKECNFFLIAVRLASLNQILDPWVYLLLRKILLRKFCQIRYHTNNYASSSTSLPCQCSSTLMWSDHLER
Assay: FLIPR Ca2+ signaling PG antagonist assay, EP3 stable cell line
Assay type: cell-based
Conditions: HEK-293 EBNA cells, human recombinant EP3 with chimeric Gqi; standard agonist PGE2
# Kb values compiled below

Example compounds with recorded Kb:
Cc1nn(Cc2cc(Cl)ccc2OCC(C)C)c2ccc(C(=O)O)cc12 : 2.44 µM
O=C(O)c1ccc2c(cnn2Cc2cc(Br)ccc2OCc2ccccc2)c1 : ≥ 10 µM
CC(C)COc1ccc(OC(F)(F)F)cc1Cn1ccc2cc(C(=O)O)cnc21 : 2.8 µM
CCC(CC)COc1ccc(Cl)cc1Cn1ncc2cc(C(N)=O)ncc21 : ≥ 10 µM
CCC(CC)COc1ccc(Cl)cc1Cn1cc2c(C(=O)O)cccc2n1 : 5.5 µM

query: Report Kb for Cc1cc2cc(C(=O)O)ccc2n1Cc1cc(Br)ccc1OCC(C)C please.
result: ≥ 10 µM

query: Param item: CC(C)COc1ccc(OC(F)(F)F)cc1Cn1ncc2cc(C(=O)O)cnc21
result: 9.8 µM

query: Param item: CC(C)COc1ccc(Br)cc1Cn1ncc2c(C(=O)O)cccc21
result: ≥ 10 µM

query: Param item: CCC(CC)COc1ccc(Cl)cc1Cn1ccc2cc(C(=O)O)ccc21
result: 5.2 µM

query: Param item: CC(C)COc1cc(Cl)c(Cl)cc1Cn1ncc2cc(C(=O)O)ccc21
result: ≥ 10 µM
